TEST PROTOCOL: Degradation test by human blood plasma, MALDI-TOFMS analysis
Type: in vitro ADME
CONDITION DETAILS: 50% by mass human blood plasma; 10 min; read-out: degradation resistance (proportion of the peptide retained without degradation)
Residues, ends and D or L forms follow the SMILES beside them. *: point of attachment. 5FAM = O=C1OC2(c3ccc(O)cc3Oc3cc(O)ccc32)c2ccc(C(=O)*)cc21

# COMPOUND, remaining at 10 min
measured = [
    ("C[C@@H](O)[C@H](NC(=O)[C@@H](NC(=O)[C@@H]1CCCN1C(=O)[C@H](CCCNC(=N)N)NC(=O)[C@H](CCCNC(=N)N)NC(=O)c1ccc2c(c1)C(=O)OC21c2ccc(O)cc2Oc2cc(O)ccc21)[C@@H](C)O)C(=O)N[C@@H](Cc1c[nH]c2ccccc12)C(=O)N[C@@H](Cc1c[nH]cn1)C(=O)N[C@@H](CCCCN)C(=O)N1CCC[C@H]1C(=O)O [compound 13] (5FAM-RRPTTWHKP-OH; C-terminus assumed)", "90%"),
]

----------
Below: a set of entries, each annotated with reported remaining at 1 h.
TEST PROTOCOL: Degradation test by human blood plasma, MALDI-TOFMS analysis
Assay type: in vitro ADME
CONDITION DETAILS: 50% by mass human blood plasma; 60 min; read-out: degradation resistance (proportion of the peptide retained without degradation)
No end group written: not given here.
MEASUREMENT KIND: remaining at 1 h (%)

# MACROMOLECULE SEQUENCE, MEASUREMENT KIND, NUMERIC VALUE
measured = [
    ("RRPTTWHKPGRRPTTWHKP [compound 9]", "remaining at 1 h", 79),
    ("RRPTTWHKPGRRPTTWHKPGRRPTTWHKP [compound 12]", "remaining at 1 h", 100),
]

----------
TEST PROTOCOL: Degradation test by human blood plasma, MALDI-TOFMS analysis
Assay type: in vitro ADME
CONDITION DETAILS: 50% by mass human blood plasma; 5 min; read-out: degradation resistance (proportion of the peptide retained without degradation)
Residues, ends and D or L forms follow the SMILES beside them. *: point of attachment. 5FAM = O=C1OC2(c3ccc(O)cc3Oc3cc(O)ccc32)c2ccc(C(=O)*)cc21
MEASUREMENT KIND: remaining at 5 min (%)

# MOLECULE, MEASUREMENT KIND, NUMERIC VALUE
measured = [
    ("C[C@@H](O)[C@H](NC(=O)[C@@H](NC(=O)[C@@H]1CCCN1C(=O)[C@H](CCCNC(=N)N)NC(=O)[C@H](CCCNC(=N)N)NC(=O)c1ccc2c(c1)C(=O)OC21c2ccc(O)cc2Oc2cc(O)ccc21)[C@@H](C)O)C(=O)N[C@@H](Cc1c[nH]c2ccccc12)C(=O)N[C@@H](Cc1c[nH]cn1)C(=O)N[C@@H](CCCCN)C(=O)N1CCC[C@H]1C(=O)O [compound 13] (5FAM-RRPTTWHKP-OH; C-terminus assumed)", "remaining at 5 min", 100),
]

----------
TEST PROTOCOL: Degradation test by human blood plasma, MALDI-TOFMS analysis
Format: in vitro ADME
CONDITION DETAILS: 50% by mass human blood plasma; 20 min; read-out: degradation resistance (proportion of the peptide retained without degradation)
No end group written: not given here.
Below: a set of entries, each annotated with reported remaining at 20 min.
MEASUREMENT KIND: remaining at 20 min

# MACROMOLECULE SEQUENCE, RESULT
records = [
    ("RRPTTWHKPGRRPTTWHKP [compound 9]", "89%"),
    ("RRPTTWHKPGRRPTTWHKPGRRPTTWHKP [compound 12]", "100%"),
]

Where do these numbers come from? They come from patent US11447525B2.
